Kindly state Reduction for each of the entries shown.
system: Rattus norvegicus; assay: Hypolipidemic activity was measured as reduction in rat serum cholesterol after oral administration in male Wistar rats at 100 mg / (kg day); format: functional
Use % as the unit, but write only the number.

For the compound Cc1cc(C(c2ccc(Cl)cc2)N2CCN(C)CC2)sn1 (stereo unspecified) , what Reduction is on record?
15

For the compound Cc1cccc(C(c2cc(C)ns2)N2CCN(C)CC2)c1 (stereo unspecified) , what Reduction is on record?
26

For the compound Cc1cc(C(c2cccc(C(F)(F)F)c2)N2CCN(C)CC2)sn1 (stereo unspecified) , what Reduction is on record?
8

For the compound Cc1cc(C(c2ccc(C(C)(C)C)cc2)N2CCN(C)CC2)sn1 (stereo unspecified) , what Reduction is on record?
25

For the compound Cc1cc(C(c2ccc(C(C)C)cc2)N2CCOCC2)sn1 (stereo unspecified) , what Reduction is on record?
7

For the compound Cc1cc(C(c2ccccc2)N2CCN(C)CC2)sn1 (stereo unspecified) , what Reduction is on record?
21

For the compound Cc1cc(C(c2ccc(C(C)C)cc2)N2CCCCC2)sn1 (stereo unspecified) , what Reduction is on record?
16

For the compound Cc1ccccc1C(c1nccn1C)N1CCN(C)CC1 (stereo unspecified) , what Reduction is on record?
5

For the compound Cc1ccc(C(c2cc(C)ns2)N2CCN(C)CC2)cc1 (stereo unspecified) , what Reduction is on record?
9

For the compound CCOc1ccccc1C(c1cc(C)ns1)N1CCN(C)CC1 (stereo unspecified) , what Reduction is on record?
25

For the compound Cc1cc(C(c2ccc(C(C)C)cc2)N2CCN(C(=O)c3ccccc3)CC2)sn1 (stereo unspecified) , what Reduction is on record?
26

---

system: Rattus norvegicus; assay: Hypolipidemic activity was measured as reduction in rat serum cholesterol after oral administration in male Wistar rats at 20 mg / (kg day); format: functional
parameter: Reduction
Kindly format the answer as number then unit.

For the compound Cc1cc(C(c2ccccc2Cl)N2CCN(C)CC2)sn1 (centres undefined) , what Reduction is on record?
16%

For the compound Cc1cc(C(c2ccccc2C)N2CCN(C)CC2)sn1 (centres undefined) , what Reduction is on record?
27%

For the compound CN1CCN(C(c2ccns2)c2ccccc2Cl)CC1 (centres undefined) , what Reduction is on record?
43%

For the compound COc1ccccc1C(c1ccns1)N1CCN(C)CC1 (centres undefined) , what Reduction is on record?
3%

---

test system: Rattus norvegicus; experiment: Hypolipidemic activity was measured as reduction in rat serum triglyceride after oral administration in male Wistar rats at 3 mg / (kg day); type: functional
parameter: Reduction (%)
Use % as the unit, but write only the number.

What Reduction appears in the records for this molecule with Rattus norvegicus? CC(C)c1ccc(C(c2ccns2)N2CCNCC2)cc1 (stereo not drawn)
18

What Reduction appears in the records for this molecule with Rattus norvegicus? CCCc1ccc(C(c2ccns2)N2CCN(C)CC2)cc1 (stereo not drawn)
18

What Reduction appears in the records for this molecule with Rattus norvegicus? Cc1noc(C)c1C(=C1CCNCC1)c1ccc(C(C)C)cc1
6

What Reduction appears in the records for this molecule with Rattus norvegicus? Cc1cnsc1C(c1ccc(C(C)C)cc1)N1CCN(CCO)CC1 (stereo not drawn)
8

What Reduction appears in the records for this molecule with Rattus norvegicus? Cc1cnsc1C(c1ccc(C(C)C)cc1)N1CCN(CCCO)CC1 (stereo not drawn)
17

What Reduction appears in the records for this molecule with Rattus norvegicus? Cc1cc(C(c2ccc(C(C)C)cc2)N2CCNCC2)sn1 (stereo in doubt; 33)
26

What Reduction appears in the records for this molecule with Rattus norvegicus? Cc1cnsc1C(c1ccc(C(C)C)cc1)N1CCNCC1 (stereo not drawn)
2

What Reduction appears in the records for this molecule with Rattus norvegicus? CC(C)c1ccccc1C(c1ccns1)N1CCN(C)CC1 (stereo not drawn)
14

What Reduction appears in the records for this molecule with Rattus norvegicus? Cc1cnsc1C(c1ccc(C(C)C)cc1)N1CCN(C)CC1 (stereo not drawn)
5

What Reduction appears in the records for this molecule with Rattus norvegicus? Cc1noc(C)c1C(=C1CCN(C)CC1)c1ccc(C(C)C)cc1
43

What Reduction appears in the records for this molecule with Rattus norvegicus? Cc1noc(C)c1C(c1ccc(C(C)C)cc1)N1CCN(CCO)CC1 (stereo not drawn)
29

What Reduction appears in the records for this molecule with Rattus norvegicus? Cc1cnsc1C(c1ccc(C(C)C)cc1)N1CCN(CC(C)O)CC1 (stereo not drawn)
22

What Reduction appears in the records for this molecule with Rattus norvegicus? Cc1cc(C(=C2CCN(C)CC2)c2ccc(C(C)C)cc2)sn1
37
